biological target: T1, EGFR extracellular domain (with an amino acid sequence of 25-645) (human, UniProt P00533 25-645); assay: SPR, Biacore T200; EGFR extracellular domain on CM5 chip, rLZ-8 protein as analyte
T1 construct: range 25-645; Coupled on a CM5 chip; also called epidermal growth factor receptor extracellular domain; ligand (on the chip)
I would appreciate it if you labelled entries rule met when kon is 4000 M⁻¹ s⁻¹ or higher, otherwise rule not met.

[
  {
    "binder": "rLZ-8 (D20H) (other, Surface potential mutant of rLZ-8) MSDTALIFRLAWDVKKLSFHYTPNWGRGNPNNFIDTVTFPKVLTDKAYTYRVAVSGRNLGVKPSYAVESDGSQKVNFLEYNSGYGIADTNTIQVFVVDPDTNNDFIIAQWN",
    "label": "rule met"
  },
  {
    "binder": "rLZ-8 (S18A) (other, Alanine mutant of rLZ-8) MSDTALIFRLAWDVKKLAFDYTPNWGRGNPNNFIDTVTFPKVLTDKAYTYRVAVSGRNLGVKPSYAVESDGSQKVNFLEYNSGYGIADTNTIQVFVVDPDTNNDFIIAQWN",
    "label": "rule not met"
  },
  {
    "binder": "rLZ-8 (R9A) (other, Alanine mutant of rLZ-8) MSDTALIFALAWDVKKLSFDYTPNWGRGNPNNFIDTVTFPKVLTDKAYTYRVAVSGRNLGVKPSYAVESDGSQKVNFLEYNSGYGIADTNTIQVFVVDPDTNNDFIIAQWN",
    "label": "rule met"
  },
  {
    "binder": "rLZ-8 (K41D/K46E/K74E) (other, Mutant of rLZ-8) MSDTALIFRLAWDVKKLSFDYTPNWGRGNPNNFIDTVTFPDVLTDEAYTYRVAVSGRNLGVKPSYAVESDGSQEVNFLEYNSGYGIADTNTIQVFVVDPDTNNDFIIAQWN",
    "label": "rule met"
  },
  {
    "binder": "rLZ-8 (L17K) (other, Surface potential mutant of rLZ-8) MSDTALIFRLAWDVKKKSFDYTPNWGRGNPNNFIDTVTFPKVLTDKAYTYRVAVSGRNLGVKPSYAVESDGSQKVNFLEYNSGYGIADTNTIQVFVVDPDTNNDFIIAQWN",
    "label": "rule met"
  },
  {
    "binder": "rLZ-8 (K16A/S18A/K41A/D45A) (other, Alanine mutant of rLZ-8, made by the same fermentation and purification as rLZ-8) MSDTALIFRLAWDVKALAFDYTPNWGRGNPNNFIDTVTFPAVLTAKAYTYRVAVSGRNLGVKPSYAVESDGSQKVNFLEYNSGYGIADTNTIQVFVVDPDTNNDFIIAQWN",
    "label": "rule not met"
  },
  {
    "binder": "rLZ-8 (D45A) (other, Alanine mutant of rLZ-8) MSDTALIFRLAWDVKKLSFDYTPNWGRGNPNNFIDTVTFPKVLTAKAYTYRVAVSGRNLGVKPSYAVESDGSQKVNFLEYNSGYGIADTNTIQVFVVDPDTNNDFIIAQWN",
    "label": "rule not met"
  }
]

Reference for the values: patent US12077566
